// cAMP assay (ALPHAScreen), result at 1 µM peptide lookup, one value per entry
biological target: Kappa opioid receptor (KOR) (Homo sapiens (Human), UniProt P41145 1-380); assay: cell-based or functional assay
Sequence (P41145 whole entry, form in doubt): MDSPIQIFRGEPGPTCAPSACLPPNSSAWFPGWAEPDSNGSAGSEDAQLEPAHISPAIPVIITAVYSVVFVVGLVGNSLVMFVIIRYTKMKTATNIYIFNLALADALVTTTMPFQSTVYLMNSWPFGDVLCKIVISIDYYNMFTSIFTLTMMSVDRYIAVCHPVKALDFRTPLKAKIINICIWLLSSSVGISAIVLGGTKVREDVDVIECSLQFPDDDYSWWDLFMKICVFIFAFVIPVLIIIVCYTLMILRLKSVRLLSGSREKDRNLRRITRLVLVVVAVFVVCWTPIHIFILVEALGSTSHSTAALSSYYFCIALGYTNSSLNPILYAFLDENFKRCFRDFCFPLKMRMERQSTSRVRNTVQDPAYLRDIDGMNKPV
Square brackets hold non-standard residues; d marks the D form. Phe(4-NO2) = N[C@@H](Cc1ccc([N+](=O)[O-])cc1)C(=O)O; Phe(4-Cl) = N[C@@H](Cc1ccc(Cl)cc1)C(=O)O; Sar = CNCC(=O)O
The reply should be a number, written without any unit.

Some solved cases for reference:
| BINDER | VALUE_REPORTED |
| --- | --- |
| H-Y[Sar]FLR[dR]-NH2 [SEQ ID NO. 3: NH2-Tyr-Sar-Phe-Leu-Arg-DArg-NH2] | 27.2 |
| H-Y[Sar]FL[dR]R-NH2 [SEQ ID NO. 6: NH2-Tyr-Sar-Phe-Leu-DArg-Arg-NH2] | 14.2 |
| H-Y[Sar][Phe(4-Cl)]LR[dR]-NH2 [SEQ ID NO. 11: NH2-Tyr-Sar-(4-Cl)Phe-Leu-Arg-DArg-NH2] | 27.7 |

binder H-F[Sar][Phe(4-NO2)]L[dR][dR]-NH2 (SMILES CC(C)C[C@H](NC(=O)[C@H](Cc1ccc([N+](=O)[O-])cc1)NC(=O)CN(C)C(=O)[C@@H](N)Cc1ccccc1)C(=O)N[C@H](CCCNC(=N)N)C(=O)N[C@H](CCCNC(=N)N)C(N)=O) [SEQ ID NO. 9: NH2-Phe-Sar-(4-NO2)Phe-Leu-DArg-DArg-NH2] , cAMP assay (ALPHAScreen), result at 1 µM peptide observed: 2.46
